Molecular target: recombinant Hordeum vulgare GSAAT (Hordeum vulgare, UniProt P18492)
Construct: The mature Hordeum vulgare GSAAT was produced recombinantly in Escherichia coli
Sequence (P18492 35-469): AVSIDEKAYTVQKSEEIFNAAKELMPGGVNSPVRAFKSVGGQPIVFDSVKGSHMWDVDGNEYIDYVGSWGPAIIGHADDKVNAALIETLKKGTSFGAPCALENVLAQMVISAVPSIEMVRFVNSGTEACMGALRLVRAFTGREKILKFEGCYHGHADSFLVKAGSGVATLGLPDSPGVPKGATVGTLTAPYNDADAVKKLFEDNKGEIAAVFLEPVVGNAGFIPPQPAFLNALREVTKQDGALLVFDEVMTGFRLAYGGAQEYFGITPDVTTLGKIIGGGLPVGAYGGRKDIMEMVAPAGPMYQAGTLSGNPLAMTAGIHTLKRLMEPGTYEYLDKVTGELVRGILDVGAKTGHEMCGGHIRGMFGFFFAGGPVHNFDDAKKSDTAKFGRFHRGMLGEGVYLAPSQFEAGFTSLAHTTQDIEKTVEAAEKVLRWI
Experiment: GSAAT activity test (photometric detection of derivatized 5-aminolevulinic acid)
Details: pH 6.5, 20° C., read-out: concentration leading to a 50% reduction in GSAAT activity
Method: GSAAT activity was detected by a photometric detection of the derivatized reaction product 5-aminolevulinic acid. The activity test was carried out in a 96-well flat-bottom microtiter plate (F form) made of polystyrene. […] Immediately after the enzymatic reaction had started, the mixture was incubated for 30 minutes at 20° C. […] After the incubation had ended, the absorption of the solution was determined immediately at a wavelength of 540 nm with the aid of a microtiter plate photometer. […]
READOUT NAME: pIC50
As a rule, pIC50 stands for the negative log10 of the concentration, concentration in M.

Query: Can you share its pIC50? I mean this compound: NNCCCS(=O)(=O)O [compound A, hydrazinopropylsulfonic acid]
Response: 5.22
